Values compiled from patent US9006269B2.

Target: human FAAH 1 (Homo sapiens (Human), UniProt O00519)
Sequence (O00519 whole entry): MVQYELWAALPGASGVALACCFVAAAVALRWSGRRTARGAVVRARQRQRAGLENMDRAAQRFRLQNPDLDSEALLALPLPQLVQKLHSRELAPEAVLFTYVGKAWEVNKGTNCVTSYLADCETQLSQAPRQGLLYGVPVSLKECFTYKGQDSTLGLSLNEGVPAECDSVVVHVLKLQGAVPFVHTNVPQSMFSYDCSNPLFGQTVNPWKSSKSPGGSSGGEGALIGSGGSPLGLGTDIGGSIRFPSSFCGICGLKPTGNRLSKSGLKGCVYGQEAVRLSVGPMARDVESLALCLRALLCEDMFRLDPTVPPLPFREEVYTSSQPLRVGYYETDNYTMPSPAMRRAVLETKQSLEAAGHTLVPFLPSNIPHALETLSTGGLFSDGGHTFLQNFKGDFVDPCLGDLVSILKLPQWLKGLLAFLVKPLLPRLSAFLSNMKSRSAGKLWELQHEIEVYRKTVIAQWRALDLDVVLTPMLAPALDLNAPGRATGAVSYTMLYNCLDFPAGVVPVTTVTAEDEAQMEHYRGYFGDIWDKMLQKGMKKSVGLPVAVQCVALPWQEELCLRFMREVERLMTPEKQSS
Test: Human FAAH 1 assay (AAMCA fluorescence)
Assay type: biochemical
Settings: 1 hour pre-incubation with compound, 10 nM FAAH; read-out: FAAH Human IC50 (nM) 60 minutes (n = 2)
Give IC50 for every item shown.
Numeric answer only, unit nM assumed.

Incoming: Which IC50 value belongs to O=C(Nc1cccnn1)N1CC(Oc2ccc(-c3ccccc3F)cn2)C1 [Example 18] ?
Outgoing: 16

Incoming: Which IC50 value belongs to COCCOc1cccc(-c2ccc(OC3CN(C(=O)Nc4ccncn4)C3)nc2)c1 [Example 5] ?
Outgoing: 9

Incoming: Which IC50 value belongs to COCCOc1cccc(-c2ccc(OC3CN(C(=O)Nc4cccnn4)C3)nc2)c1 [Example 7] ?
Outgoing: 19

Incoming: Which IC50 value belongs to COc1cccc(-c2ccc(OC3CN(C(=O)Nc4cccnn4)C3)nc2)c1F [Example 19] ?
Outgoing: 26

Incoming: Which IC50 value belongs to O=C(Nc1cccnn1)N1CC(Oc2ccc(-c3cccc(OCCO)c3)cn2)C1 [Example 10] ?
Outgoing: 49

Incoming: Which IC50 value belongs to COCCOc1ccc(OC)c(-c2ccc(OC3CN(C(=O)Nc4cccnn4)C3)nc2)c1 [Example 11] ?
Outgoing: 19

Incoming: Which IC50 value belongs to O=C(Nc1cnccn1)N1CC(Oc2ccc(-c3ccccc3F)cn2)C1 [Example 16] ?
Outgoing: 42

Incoming: Which IC50 value belongs to O=C(Nc1cccnn1)N1CC(Oc2ccc(-c3cccc(OCCOCc4ccccc4)c3)cn2)C1 [Example 9] ?
Outgoing: 3

Incoming: Which IC50 value belongs to COCCOc1cccc(-c2ccc(OC3CN(C(=O)Nc4cccnc4)C3)nc2)c1 [Example 8] ?
Outgoing: 18
